This collection of values is drawn from paper PMC9048505.

MOLECULE	melting point
COc1ccc(/C=C2/N=C(N/N=C(\C)c3ccco3)SC2=O)cc1OC [Compound 8k]	240 to 242 °C
COc1ccc(/C=C2/N=C(N/N=C(\C)c3ccco3)SC2=O)cc1 [Compound 8g]	288 to 290 °C
C/C(=N\NC1=N/C(=C/c2ccc(Cl)cc2)C(=O)S1)c1ccco1 [Compound 8h]	272 to 274 °C
COc1ccc(/C=C2/N=C(N/N=C(\C)c3cccs3)SC2=O)cc1 [Compound 8a]	243 to 245 °C
C/C(=N\NC1=N/C(=C/c2ccc(O)cc2)C(=O)S1)c1cccs1 [Compound 8c]	178 to 180 °C
C/C(=N\NC1=N/C(=C/c2cccs2)C(=O)S1)c1ccco1 [Compound 9b]	203 to 205 °C
COc1ccc(/C=C2/N=C(N/N=C(\C)c3ccc(OC)c(OC)c3)SC2=O)cc1OC [Compound 4j]	232 to 236 °C
C/C(=N\NC1=N/C(=C/c2ccc(Cl)cc2Cl)C(=O)S1)c1cccs1 [Compound 8d]	274 to 276 °C
COc1ccc(/C=C2/N=C(N/N=C(\C)c3cccs3)SC2=O)cc1OC [Compound 8e]	248 to 250 °C
C/C(=N\NC1=N/C(=C/c2ccc(O)cc2O)C(=O)S1)c1cccs1 [Compound 8f]	> 300 °C
COc1ccc(/C(C)=N/NC2=N/C(=C/c3ccc(Cl)cc3Cl)C(=O)S2)cc1OC [Compound 4i]	> 300 °C
C/C(=N\NC1=N/C(=C/c2ccc(Cl)cc2)C(=O)S1)c1ccc(C)cc1 [Compound 4b]	266 to 268 °C
COc1ccc(/C=C2/N=C(N/N=C(\C)c3ccc(C)cc3)SC2=O)cc1OC [Compound 4e]	254 to 256 °C
C/C(=N\NC1=N/C(=C/c2ccc(Cl)cc2Cl)C(=O)S1)c1ccco1 [Compound 8j]	264 to 266 °C
C/C(=N\NC1=N/C(=C/c2ccc(O)cc2)C(=O)S1)c1ccco1 [Compound 8i]	293 to 295 °C
C/C(=N\NC1=N/C(=C/c2ccc(O)cc2O)C(=O)S1)c1ccco1 [Compound 8l]	282 to 284 °C
C/C(=N\NC1=N/C(=C/c2cccs2)C(=O)S1)c1ccc(C)cc1 [Compound 5a]	202 to 204 °C
COc1ccc(/C=C2/N=C(N/N=C(\C)c3ccc(C)cc3)SC2=O)cc1 [Compound 4a]	248 to 250 °C
C/C(=N\NC1=N/C(=C/c2cccs2)C(=O)S1)c1cccs1 [Compound 9a]	214 to 216 °C
COc1ccc(/C(C)=N/NC2=N/C(=C/c3ccc(O)cc3)C(=O)S2)cc1OC [Compound 4h]	290 to 292 °C
